Where these numbers come from: the RNAGym collection of RNA variant scans (doi:10.7554/elife.90254)

B1: LINE1-full (parent)
chain: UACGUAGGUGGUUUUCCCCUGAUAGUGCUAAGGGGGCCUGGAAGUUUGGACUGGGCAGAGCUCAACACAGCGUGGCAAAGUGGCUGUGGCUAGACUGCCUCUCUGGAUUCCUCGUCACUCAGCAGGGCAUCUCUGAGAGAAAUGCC

- Variants of: B1
- Experiment notes: self-cleavage, relative activity (ratio to wild type); higher = more cleavage; in vitro, sequencing; the parent is a self-cleaving ribozyme
Decide by self-cleavage: equal to or exceeding 0.9 means true, less means false.

>  <Variant description>
U52C U108C

>  <Assigned label>
true

$$$$
>  <Variant description>
A94U U96A

>  <Assigned label>
false

$$$$
>  <Variant description>
A6U A138G

>  <Assigned label>
true

$$$$
>  <Variant description>
G32A A67U

>  <Assigned label>
false

$$$$
>  <Variant description>
C61A U81C

>  <Assigned label>
false

$$$$
>  <Variant description>
C120U

>  <Assigned label>
true

$$$$
>  <Variant description>
U20C A64G

>  <Assigned label>
false

$$$$
>  <Variant description>
A77U G125A

>  <Assigned label>
true

$$$$
>  <Variant description>
C56U U85G

>  <Assigned label>
false

$$$$
>  <Variant description>
A2G G72U

>  <Assigned label>
false

$$$$
>  <Variant description>
C71G U81A

>  <Assigned label>
false

$$$$
>  <Variant description>
U46C G53A

>  <Assigned label>
true

$$$$
>  <Variant description>
U15C U26C

>  <Assigned label>
true

$$$$
>  <Variant description>
C16A U47G

>  <Assigned label>
false

$$$$
>  <Variant description>
A64U G70A

>  <Assigned label>
false

$$$$
>  <Variant description>
U15A C111U

>  <Assigned label>
true

$$$$
>  <Variant description>
A42G U85A

>  <Assigned label>
false

$$$$
>  <Variant description>
A59G U81A

>  <Assigned label>
false

$$$$
>  <Variant description>
U12C C99G

>  <Assigned label>
false

$$$$
>  <Variant description>
U26C G33A

>  <Assigned label>
false

$$$$
